B1: library; numbered along this chain (parent)
chain: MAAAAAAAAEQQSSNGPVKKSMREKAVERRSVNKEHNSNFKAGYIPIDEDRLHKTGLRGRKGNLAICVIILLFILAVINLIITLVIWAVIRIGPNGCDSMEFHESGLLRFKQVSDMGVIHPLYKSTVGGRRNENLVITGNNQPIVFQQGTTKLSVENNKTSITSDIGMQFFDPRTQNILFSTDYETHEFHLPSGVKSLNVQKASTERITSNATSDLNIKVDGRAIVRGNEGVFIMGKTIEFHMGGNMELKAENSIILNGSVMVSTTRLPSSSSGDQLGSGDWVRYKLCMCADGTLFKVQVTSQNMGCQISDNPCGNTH

- Variants of: B1
- assay.summary: SGCB cell-surface expression functional score (HA stain, bin4 vs bin1, normalised to synonymous) (log10 ratio); higher = more cell-surface SGCB (functional)
Would you mind classing the entries by SGCB cell-surface expression functional score (log10)? Ranges: Low = under -0.8, Mid = from -0.8 up to 0.03, High = 0.03 and over

Some solved entries appear below for comparison.
D275T    Mid
V89Q    Low
K124N    High
L108H    Low
S302I    High

Ask: Field: class (SGCB cell-surface expression functional score (log10)) — entry: V261A
Result: Mid

Ask: Field: class (SGCB cell-surface expression functional score (log10)) — entry: V261E
Result: High

Ask: Field: class (SGCB cell-surface expression functional score (log10)) — entry: V113A
Result: Mid

Ask: Field: class (SGCB cell-surface expression functional score (log10)) — entry: R207C
Result: Low

Ask: Field: class (SGCB cell-surface expression functional score (log10)) — entry: A26Y
Result: Mid
